- assayOverview: in vivo
- runParameters: NIH-III, mouse, plasma, ip, 78.3 mg/kg
assayReadout: Cmax (µM)
// return numeric value only (unit: µM, not printed)

Consider the compound `c1c2c(cc3nc(CCCN4CCOCC4)nnc13)CCC2` and give its recorded Cmax.
3.85

----------
Listing of entries alongside the reported clearance.
- assayOverview: Compartmental plasma PK model
- Assay type: in vivo
- runParameters: NIH-III, mouse, plasma, other: i.p. and i.v. datasets fitted simultaneously; model clearance of the compound; read-out: CL (converted)
// return numeric value only (unit: mL/min/kg, not printed)

compoundStructureString	clearance / mL/min/kg
OC[C@@H](O)[C@@H](O)[C@H](O)[C@H](O)CO	19.5

Consider the molecule `c1c2c(cc3nc(CCCN4CCOCC4)nnc13)CCC2` and give its recorded clearance.
1280
